- Tested on: SN12C renal
- method: NCI tumour cell line growth inhibition, 48 h
property: TGI (µM)

compound: CCCCN1C(=O)C[C@H]2[C@@H]3CCc4cc(OCCN5CCCC5)ccc4[C@H]3CC[C@]2(C)C1=O
endpoint.unit: µM
prefix.operator: =
test.result: 30.2

compound: C=C1CCC2C(C)(CO)C(O)CCC2(C)C1CC(O)C1=CCOC1=O (stereo not given)
endpoint.unit: µM
prefix.operator: >
test.result: 100

compound: Cc1cccc2c(=O)c3c(sc12)c(NCCN)nc1ccccc13
endpoint.unit: µM
prefix.operator: =
test.result: 1.54

compound: CC(=O)O[C@@H]1CC(=O)O[C@@H]2C[C@@H](CC/C(Cl)=C/C/C=C\1C)O[C@@H]2CO
endpoint.unit: µM
prefix.operator: >
test.result: 25

compound: CC1=NN(c2ccccc2)C(=O)C1C(=O)C(=O)Nc1ccc(C)cc1C (stereo not given)
endpoint.unit: µM
prefix.operator: >
test.result: 100

compound: O=C(O)C#Cc1ccc([N+](=O)[O-])cc1
endpoint.unit: µM
prefix.operator: >
test.result: 100

compound: O=C(Nc1cccc(-n2cc(-c3ccncc3)c(-c3ccc(O)c(Cl)c3)n2)c1)Nc1ccc(Cl)c(C(F)(F)F)c1
endpoint.unit: µM
prefix.operator: =
test.result: 13.4

compound: O=C1c2cccnc2-c2nccc3ccnc1c23
endpoint.unit: µM
prefix.operator: =
test.result: 2.36

compound: c1ccc(-c2cc(-c3cc(-c4ccccc4)no3)on2)cc1
endpoint.unit: µM
prefix.operator: >
test.result: 100

compound: CCC(C)(C)c1ccc(Oc2cccc(C(=O)O)c2)cc1
endpoint.unit: µM
prefix.operator: >
test.result: 100

* * *

# reported TGI; entries follow
- Tested on: HOP-92 NSCLC
- method: NCI tumour cell line growth inhibition, 48 h
Where a SMILES comes first, the peptide text is derived from it. Bridges are numbered along the chain shown (N, C = ends). Roman numbers before positions name the chains, in order. [ ]: non-standard residue; d: D form. The star is where a group is joined. Heptadecanoyl = CCCCCCCCCCCCCCCCC(=O)*; Phg = N[CH](C(=O)O)c1ccccc1

compound: CCCCCCCCCCCCCCCCC(=O)N1CCCC1C(=O)NCC(=O)NC(C(=O)N1CCCC1C(=O)NC(CO)C(=O)NC(Cc1ccc(O)cc1)C(=O)NC(CCCCNC(=O)C1CCCN1C(=O)C(CCCCN)NC(=O)C(CCCCN)NC(=O)C(CCCCN)NC(=O)C(CCCNC(=N)N)NC(=O)C(CCCCN)NC(=O)C(N)C(C)C)C(=O)NC(CC(C)C)C(=O)NC(CCCNC(=N)N)C(=O)N1CCCC1C(=O)NCC(N)=O)c1ccccc1 (stereo unspecified) (I: Heptadecanoyl-PG[Phg]PSYKLRPG-NH2 / II: H-VKRKKKP; amide I:7-II:C; configuration not given here)
TGI: 83 µM
//
compound: CCCNNC(=O)c1ccc(CNC(=O)/C=C/c2ccccc2)cc1
TGI: 0.609 µM
//
compound: CCC1CCN=C(Cn2cc(C)c(=O)[nH]c2=O)N1 (stereo unspecified)
TGI: > 100 µM
//
compound: O=C(Nc1ncc(Cc2ccc(Cl)cc2)s1)c1ccc2c(c1)OCCO2
TGI: > 100 µM
//
compound: COc1cc(C2c3cc4c(cc3OC(O)C2C)OCO4)cc(OC)c1O (stereo unspecified)
TGI: > 94.3 µM
//
compound: COC(=O)c1c/c(=N\NC(=O)CC(=O)Nc2ccc(C)cc2)c2ccccc2o1
TGI: > 100 µM

* * *

Listed below: GI50 values for each entry.
- System: SK-OV-3 ovarian
- method: NCI tumour cell line growth inhibition, 48 h
Where a SMILES comes first, the peptide text is derived from it. Bridges are numbered along the chain shown (N, C = ends). Roman numbers before positions name the chains, in order. [ ]: non-standard residue; d: D form. The star is where a group is joined. Heptadecanoyl = CCCCCCCCCCCCCCCCC(=O)*; Phg = N[CH](C(=O)O)c1ccccc1

molecule: CSc1ccc2c(c1)C(=O)c1c-2n(CCCN=[N+]=[N-])c(=O)c2cc([N+](=O)[O-])ccc12
GI50: 861 nM
//
molecule: O=C1[C@H](c2ccccc2)C2c3ccccc3CCN12 (stereo partly specified)
GI50: > 100000 nM
//
molecule: O=C(Nc1cccc2ccccc12)c1cc2ccccc2cc1O
GI50: 2500 nM
//
molecule: CCCCCCCCCCCCCCCCC(=O)N1CCCC1C(=O)NCC(=O)NC(C(=O)N1CCCC1C(=O)NC(CO)C(=O)NC(Cc1ccc(O)cc1)C(=O)NC(CCCCNC(=O)C1CCCN1C(=O)C(CCCCN)NC(=O)C(CCCCN)NC(=O)C(CCCCN)NC(=O)C(CCCNC(=N)N)NC(=O)C(CCCCN)NC(=O)C(N)C(C)C)C(=O)NC(CC(C)C)C(=O)NC(CCCNC(=N)N)C(=O)N1CCCC1C(=O)NCC(N)=O)c1ccccc1 (stereo unspecified) (I: Heptadecanoyl-PG[Phg]PSYKLRPG-NH2 / II: H-VKRKKKP; amide I:7-II:C; configuration not given here)
GI50: 23100 nM
//
molecule: COc1ccc2cc(C(=O)/C=C/c3ccccc3OC)ccc2c1
GI50: 12700 nM
//
molecule: COc1cc2c(/C=C3/C(=O)Nc4c3ccc3ccccc43)c(Cl)[nH]c2cc1C
GI50: 36.4 nM

* * *

- System: M14 melanoma
- method: NCI tumour cell line growth inhibition, 48 h
We begin with a simple list: items and their reported TGI.

compound: CC(C)=CCC/C(C)=C/CC/C(C)=C/CC/C(C=O)=C/CC/C(C)=C\CC/C(C)=C/CC/C(C)=C/CC/C(C)=C/CC1=CC(=O)C=CC1=O
TGI: > 100 µM

compound: C=CCn1c(=S)sc2c(=O)[nH]cnc21
TGI: > 100 µM

compound: Cc1ccccc1C(C#N)/C(=N/NC(=O)C(=O)NN)C(=O)Nc1cccc(C(F)(F)F)c1 (centres undefined)
TGI: > 100 µM

compound: COc1ccc2oc(-c3ccc(Cl)cc3)c(N3CCN(C)CC3)c2c1
TGI: 4.26 µM

compound: O=C(Nc1ccc(Cl)cc1Cl)/C(Cl)=C1/Sc2ccccc2NC1=O
TGI: > 100 µM

compound: COc1cc([C@@H]2c3cc4c(cc3[C@@H](NC(=O)c3ccc([N+](=O)[O-])cc3)C3COC(=O)[C@@H]32)OCO4)cc(OC)c1O (some centres undefined)
TGI: > 100 µM

compound: O=C(CN/C=C\C(=O)c1cc(Cl)ccc1Cl)c1ccccc1
TGI: 59.6 µM

compound: Cc1ccc(S(=O)(=O)N2C/C(=C\c3cc(F)cc(F)c3)C(=O)/C(=C/c3cc(F)cc(F)c3)C2)cc1
TGI: 1.72 µM

compound: COc1ccc(OC)c2c3c(ncc12)-c1cc2c(cc1C3)OCO2
TGI: > 100 µM

* * *

# GI50 listing for each entry below
- Tested on: PC-3 prostate
- method: NCI tumour cell line growth inhibition, 48 h

structure: CCOCC[P+](c1ccccc1)(c1ccccc1)c1ccccc1
target.or.system: PC-3 prostate
GI50: 10800 nM
//
structure: O=C(Nc1cccc2ccccc12)c1cc2ccccc2cc1O
target.or.system: PC-3 prostate
GI50: 2000 nM
//
structure: C#Cc1ccc(-n2c(/C=C/c3ccc4ccccc4n3)nc3ncccc3c2=O)cc1
target.or.system: PC-3 prostate
GI50: 341 nM
//
structure: N=c1c2c(=O)n3c(nc2nc2sc4ccc(Cl)cc4n12)-c1ccccc1Sc1ccccc1-3
target.or.system: PC-3 prostate
GI50: 2600 nM
//
structure: CCC1=C[C@H]2CN(CCc3c([nH]c4ccccc34)[C@@](C(=O)OC)(c3cc4c(cc3OC)N(C)[C@H]3[C@@](O)(C(=O)OC)[C@H](OC(C)=O)[C@]5(CC)[C@@H]6C[C@@H]6CN6CC[C@]43[C@@H]65)C2)C1
target.or.system: PC-3 prostate
GI50: 17.8 nM
//
structure: NNc1nc(-c2ccccn2)nc2sc3c(c12)CCCCCC3
target.or.system: PC-3 prostate
GI50: 3980 nM

* * *

- System: HOP-92 NSCLC
- method: NCI tumour cell line growth inhibition, 48 h

molecule: COc1ccc(-c2oncc2-c2cc(OC)c3c(c2)OCO3)cc1
target.or.system: HOP-92 NSCLC
prefix.operator: =
TGI (µM): 28.6
--
molecule: N=C(N)c1ccc(-c2ccc(-c3cc(Cl)cc(Cl)c3)s2)nc1
target.or.system: HOP-92 NSCLC
prefix.operator: =
TGI (µM): 19.4
--
molecule: COC(=O)/C(Cl)=C1/CC1COCc1ccccc1 (stereo unspecified)
target.or.system: HOP-92 NSCLC
prefix.operator: =
TGI (µM): 50.4
--
molecule: Clc1ccc(N=Cc2cc3cc(Br)ccc3nc2Cl)cc1
target.or.system: HOP-92 NSCLC
prefix.operator: >
TGI (µM): 50
--
molecule: CCOC(=O)C(SCCO)C(C(=O)OCC)n1cc(C)c(=O)[nH]c1=O (stereo unspecified)
target.or.system: HOP-92 NSCLC
prefix.operator: =
TGI (µM): 71.9
--
molecule: Cc1nn(C(=O)c2ccncc2)c2c1C(c1ccccc1O)SC(N)=N2 (stereo unspecified)
target.or.system: HOP-92 NSCLC
prefix.operator: >
TGI (µM): 10
--
molecule: Clc1ccc(-c2cc(-c3nc4ccccc4[nH]3)no2)cc1
target.or.system: HOP-92 NSCLC
prefix.operator: =
TGI (µM): 66.7
--
molecule: O=C(CN1C(=O)c2ccccc2C1=O)OCC1CCCN2CCCCC12 (stereo unspecified)
target.or.system: HOP-92 NSCLC
prefix.operator: >
TGI (µM): 100
--
molecule: COc1cccc(-c2cc(NCc3ccc4c(c3)OCO4)nc(N)n2)c1
target.or.system: HOP-92 NSCLC
prefix.operator: =
TGI (µM): 20.5
--
molecule: CC1=C(C(=O)Nc2ccc(Cl)c(Cl)c2)C(c2cccc(O)c2)NC(=S)N1 (stereo unspecified)
target.or.system: HOP-92 NSCLC
prefix.operator: =
TGI (µM): 35.2
--
molecule: O=C(NO)c1ccc(OCc2ccccc2)cc1
target.or.system: HOP-92 NSCLC
prefix.operator: >
TGI (µM): 100
